# Test system: NCI-H226
# Assay Info: NCI tumour cell line growth inhibition, 48 h
The source made the active and inactive calls. No stated cut-off is given here; in the data, active = GI50 up to about 1.1 µM and inactive = higher.
Measured GI50, listed per entry for reference.
Recorded Endpoint: GI50

>>> obs_value("COc1cc(OC)c2c(=O)c3c([N+](=O)[O-])cccc3n(C)c2c1")
"> 100 µM (inactive)"
>>> obs_value("N#CCN1CCOCCOCCN(CC#N)CCOCCOCC1")
"> 100 µM (inactive)"
>>> obs_value("CC(O)CN1c2ccccc2Sc2ccc(Cl)cc21 (stereo not drawn)")
"> 10 µM (inactive)"

---

# Test system: ACHN
# Assay Info: NCI tumour cell line growth inhibition, 48 h
The source made the active and inactive calls. No stated cut-off is given here; in the data, active = GI50 up to about 1.1 µM and inactive = higher.
Possible outcomes: t for active, f for inactive

>>> label_value("C=C1C[C@@H]2CC[C@@]34CC5O[C@H]6C(O[C@H]7CC[C@H](CC(=O)O[C@@H]8[C@@H](C)[C@@H]9O[C@@H]%10C[C@]%11(C[C@@H]%12O[C@]%13(C[C@H](C)[C@@H]%14O[C@@H]%15CC(C(COC(C)=O)OC(C)=O)O[C@@H]%15C[C@@H]%14O%13)C[C@H](C)[C@@H]%12O%11)O[C@@H]%10C[C@@H]9O[C@H]8CC8O[C@@H](CC[C@@H]1O2)C[C@@H](C)C8(O)CO)O[C@@H]7[C@@H]6O3)[C@H]5O4 (some centres undefined)")
"t"
>>> label_value("Cc1ccc(-c2nc(N/N=C/c3ccc(O)cc3)c3ccccc3n2)cc1")
"f"
>>> label_value("O=C(O/C(=C(/N=N/c1ccccc1)c1ccccc1)c1ccccc1)c1ccccc1")
"f"
>>> label_value("N#CCN1CCOCCOCCN(CC#N)CCOCCOCC1")
"f"

---

# System: NCI-H460
# Assay Info: NCI tumour cell line growth inhibition, 48 h
The source made the active and inactive calls. Rule as the data show it: active = GI50 up to about 1.1 µM and inactive = higher.
Recorded Endpoint: GI50

>>> obs_value("Cc1c(Cl)cccc1NC(=O)C(=O)C(C(=O)c1ccccc1-c1ccccc1)C1OC(=O)c2ccccc21 (stereo not given)")
"25.5 µM (inactive)"
>>> obs_value("CC(/C=C/c1ccccc1)=N\\N=C(C)\\C=C\\c1ccccc1")
"> 100 µM (inactive)"
>>> obs_value("CCOC(=O)Nc1cc2c(c(N)n1)N=C(c1ccccc1)[C@H](C)N2 [MIVOBULIN ISETHIONATE]")
"< 0.0001 µM (active)"
>>> obs_value("C/C(=C\\CNc1nc(Cl)nc2[nH]cnc12)CO")
"> 100 µM (inactive)"
>>> obs_value("N/N=c1\\c2ccccc2c2ccc3c4ccccc4/c(=N\\N)c3c12")
"> 100 µM (inactive)"
>>> obs_value("CC(=O)NC1C(OCc2ccccc2)OC(CO)C(O)C1OC(C)C(=O)NC(C(=O)N[C@@H](CCC(=O)NCCNCCNc1c2ccccc2nc2cccc([N+](=O)[O-])c12)C(N)=O)C(C)C (stereo not given in full)")
"14.7 µM (inactive)"
>>> obs_value("O=C(/C=C/c1ccc(O)c(O)c1)OCCOC(=O)/C=C/c1ccc(O)c(O)c1")
"37.2 µM (inactive)"
>>> obs_value("COc1cc(C2c3cc4c(cc3[C@@H](Nc3ccc(F)cc3)C3COC[C@H]23)OCO4)cc(OC)c1O (stereo not given in full)")
"0.152 µM (active)"
>>> obs_value("O=c1c2ccccc2n2n1CC(O)C2 (stereo not given)")
"> 100 µM (inactive)"
>>> obs_value("C=C1C(=O)O[C@@H]2[C@H]1C[C@H](I)[C@@]1(C)CC[C@H](O1)[C@](C)(I)CCCC(C)[C@@H]2O (stereo not given in full)")
"14.5 µM (inactive)"
>>> obs_value("CC1(C)OCC=CCO1")
"> 100 µM (inactive)"
>>> obs_value("Cc1cn(CCCCC2=NCCCN2)c(=O)[nH]c1=O")
"> 52.5 µM (inactive)"
>>> obs_value("CCCN(CCCC(NC(C)=O)C(=O)NCc1ccccc1)C(=O)N(C)N=O (stereo not given)")
"> 100 µM (inactive)"
>>> obs_value("COC(=O)C1=CC2OC1(C)CCC2=O (stereo not given)")
"> 100 µM (inactive)"
>>> obs_value("COc1ccc(C#CCC(OC2OC(CO)C(O)C(O)C2O)C(O)c2ccc(OC)c(OC)c2)cc1OC (stereo not given)")
"> 100 µM (inactive)"
>>> obs_value("O=C(CC(O)c1cccnc1)CC(O)c1cccnc1 (stereo not given)")
"19.7 µM (inactive)"
>>> obs_value("CCCCCCCCCCCCC(=O)NCC(=O)NC(Cc1ccccc1)C(=O)Oc1ccc([N+](=O)[O-])cc1 (stereo not given)")
"> 100 µM (inactive)"
>>> obs_value("COc1ccc(/C=C/c2cc(OC)c(OC)c(OC)c2)cc1")
"3.9 µM (inactive)"
>>> obs_value("N#Cc1c(C#N)c(-c2ccco2)n(/N=C/c2ccco2)c1N")
"> 100 µM (inactive)"
>>> obs_value("Cc1ccc(S(=O)(=O)NN=C2C(C)(C)CC2(C)C)cc1")
"> 100 µM (inactive)"
>>> obs_value("C=C1C[C@@H]2CC[C@@]34CC5O[C@H]6C(O[C@H]7CC[C@H](CC(=O)O[C@@H]8[C@@H](C)[C@@H]9O[C@@H]%10C[C@]%11(C[C@@H]%12O[C@]%13(C[C@H](C)[C@@H]%14O[C@@H]%15CC(C(COC(C)=O)OC(C)=O)O[C@@H]%15C[C@@H]%14O%13)C[C@H](C)[C@@H]%12O%11)O[C@@H]%10C[C@@H]9O[C@H]8CC8O[C@@H](CC[C@@H]1O2)C[C@@H](C)C8(O)CO)O[C@@H]7[C@@H]6O3)[C@H]5O4 (stereo not given in full)")
"0.258 µM (active)"
>>> obs_value("COc1cccc(-c2ccc3c4c2O[C@H]2C(=O)CC[C@@]5(O)[C@@H](C3)N(CC3CC3)CC[C@]425)c1")
"28.9 µM (inactive)"
>>> obs_value("COC(=O)C1CCC(=O)N1C(c1ccc(OC)cc1)c1ccc2c(c1)OCO2 (stereo not given)")
"40.4 µM (inactive)"
>>> obs_value("CCOP(=O)(OCC)C(c1ccccc1)N(C(=O)NC(F)(F)F)c1cccc(F)c1 (stereo not given)")
"> 100 µM (inactive)"
>>> obs_value("COc1cc2c(c(OC)c1OC)-c1ccc(SC)c(=O)cc1C(CC(=O)Oc1cccc([N+](=O)[O-])c1)C2 (stereo not given)")
"0.45 µM (active)"
>>> obs_value("CC(C)/C(Cl)=N\\OC(NC(=O)P(=O)(c1ccccc1)c1ccccc1)(C(F)(F)F)C(F)(F)F")
"15.2 µM (inactive)"
>>> obs_value("O=C(COc1ccc(OCC(=O)NNC2=NC(c3cc(F)c(Cl)cc3Cl)CS2)c(Cl)c1)NNC1=NC(c2cc(F)c(Cl)cc2Cl)CS1 (stereo not given)")
"29.9 µM (inactive)"
>>> obs_value("CCCSc1ccc2[nH]c(N3C(=O)/C(=C/c4ccc(SC)cc4)N=C3c3ccccc3)cc2c1")
"18.3 µM (inactive)"
>>> obs_value("COC(=O)C1=C(C)NC(=S)NC1c1ccc(N(CCCl)CCCl)cc1Cl (stereo not given)")
"22 µM (inactive)"
>>> obs_value("CC12C(=O)OC(=O)C1(C)C1C=CC2O1 (stereo not given)")
"> 100 µM (inactive)"
